src = patent US6921770B2

- System: Pyricularia grisea
- Assay type: in vivo
- test context: 10 ppm
recorded metric: controlling effect on rice blast (%)
Write the value in % as a bare number.

Task: Hello, please tell me recorded controlling effect on rice blast for this one: `COc1ccc(NC(=O)Cc2csc(=Nc3cccc(Br)c3)n2C)cc1`
Output: 95

Task: Complete the entry with controlling effect on rice blast for `COc1ccc(NC(=O)Cc2csc(=Nc3ccc(C(F)(F)F)cc3)n2C)cc1F.Cl`
Output: 94

Task: Retrieve controlling effect on rice blast measured for `COc1ccc(NC(=O)Cc2csc(=Nc3cccc(Br)c3)n2C)cc1.Cl` and print it.
Output: 99

Task: // Input: `CCCCc1ccc(N=c2scc(CC(=O)Nc3ccc(OC)cc3)n2C)cc1.Cl` . Output its controlling effect on rice blast only.
Output: 98

Task: Provide only the value of recorded controlling effect on rice blast for `COc1ccc(NC(=O)Cc2csc(=Nc3ccc(F)c(Cl)c3)n2C)cc1.Cl`
Output: 98

Task: Return controlling effect on rice blast for the following compound: `Cl.Cn1c(CC(=O)Nc2ccc(Cl)cc2)csc1=Nc1ccc(C#N)cc1`
Output: 100
